// data source = DBAASP

Listed here: molecules with reported MIC for Klebsiella pneumoniae ATCC 700603.

INSERT INTO measurements (given_smiles, readout_value) VALUES
  ('NC(N)=NCCC[C@H](NC(=O)[C@H](CCCN=C(N)N)NC(=O)[C@H](CS)NC(=O)[C@H](CCCN=C(N)N)NC(=O)[C@H](Cc1cnc[nH]1)NC(=O)[C@H](CO)NC(=O)[C@H](CCCN=C(N)N)NC(=O)[C@H](CS)NC(=O)[C@H](CS)NC(=O)[C@H](CCCN=C(N)N)NC(=O)[C@H](Cc1cnc[nH]1)NC(=O)[C@H](Cc1cnc[nH]1)NC(=O)[C@@H](N)CO)C(=O)O', '> 18.9 µM');

Go through the list and state MIC for each entry.
1. CC[C@H](C)[C@H](NC(=O)[C@H](CCCN=C(N)N)NC(=O)[C@H](CO)NC(=O)[C@H](CC(C)C)NC(=O)[C@H](Cc1ccccc1)NC(=O)[C@H](Cc1ccccc1)NC(=O)[C@@H](N)Cc1ccccc1)C(=O)N[C@@H](Cc1ccccc1)C(N)=O
2. CC(C)C[C@H](NC(=O)[C@H](CCCN=C(N)N)NC(=O)[C@@H]1CCCN1C(=O)[C@H](CCCN=C(N)N)NC(=O)[C@H](Cc1cnc[nH]1)NC(=O)[C@H](Cc1cnc[nH]1)NC(=O)[C@@H](N)CO)C(=O)N[C@@H](Cc1ccccc1)C(=O)N[C@@H](Cc1cnc[nH]1)C(=O)N[C@@H](CCCN=C(N)N)C(=O)N[C@@H](Cc1cnc[nH]1)C(=O)N[C@@H](CCCN=C(N)N)C(=O)N[C@@H](Cc1cnc[nH]1)C(=O)O

> 100 µM
> 18 µM

---

- Test system: Klebsiella pneumoniae ATCC 700603
Answer each item with its documented MIC.

Some entries whose results are on file:
INSERT INTO assay_data (compound, study_system, readout_value) VALUES
  ('CC(C)C[C@H](NC(=O)CN)C(=O)N[C@@H](CC(C)C)C(=O)N[C@@H](CCCCN)C(=O)N[C@@H](CC(C)C)C(=O)N[C@@H](CC(C)C)C(=O)N[C@@H](CCCCN)C(=O)N[C@@H](CCCCN)C(=O)N[C@@H](CC(C)C)C(=O)N[C@@H](CC(C)C)C(=O)N[C@@H](CCCCN)C(=O)N[C@@H](CC(C)C)C(=O)N[C@@H](CC(C)C)C(=O)N[C@@H](CCCCN)C(N)=O [GLLKLLKKLLKLLK]', 'Klebsiella pneumoniae ATCC 700603', '> 19 µM'),
  ('CC(C)C[C@H](NC(=O)[C@H](CCCN=C(N)N)NC(=O)[C@@H]1CCCN1C(=O)[C@H](CCCN=C(N)N)NC(=O)[C@H](Cc1cnc[nH]1)NC(=O)[C@H](Cc1cnc[nH]1)NC(=O)[C@@H](N)CO)C(=O)N[C@@H](Cc1ccccc1)C(=O)N[C@@H](Cc1cnc[nH]1)C(=O)N[C@@H](CCCN=C(N)N)C(=O)N[C@@H](CCCN=C(N)N)C(=O)N[C@@H](CCCN=C(N)N)C(=O)N[C@@H](Cc1cnc[nH]1)C(=O)O [SHHRPRLFHRRRH]', 'Klebsiella pneumoniae ATCC 700603', '> 17.9 µM');

Attention now shifts to the item below.
Recorded MIC (compound CC[C@H](C)[C@H](N)C(=O)N[C@@H](CC(C)C)C(=O)N[C@@H](CCCCN)C(=O)N1CCC[C@H]1C(=O)N[C@@H](CCCCN)C(=O)N[C@@H](CC(C)C)C(=O)N[C@@H](Cc1c[nH]c2ccccc12)C(=O)N[C@@H](CCCCN)C(=O)N[C@@H](CC(C)C)C(=O)N[C@H](C(=O)N[C@H](C(=O)N[C@H](C(=O)N[C@@H](C)C(=O)N[C@@H](CCCN=C(N)N)C(=O)N[C@@H](CCCCN)C(=O)N[C@H](C(=O)N[C@H](C(=O)N[C@@H](CCCCN)C(=O)O)[C@@H](C)CC)[C@@H](C)CC)C(C)C)C(C)C)[C@@H](C)O [ILKPKLWKLTVVARKIIK] ): > 64 µM
